- test: protein stability index of a GFP-peptide fusion (yeast GPS) (PSI 1-4); higher = more stable; sorted into four equal gates, so the index is relative within each strain
- condition: ubr1∆
measure name: protein stability index
One number for each entry.

- TKYSAKYAQDGAGIERE [RPL3]: 3.19
- STKFDYPPMPFDGFLFG [FAS1]: 2.68
- LNGREVKAILMQRHVKV [RPS4A]: 1.24
- MAYTSHLSSKTGLHFGR [QCR10]: 2.76
- KSSIEKDPSPEILVLYN [SIN4]: 2.82

The following sequences each have a reported value; give each one's protein stability index.
1. QRRGPLVVYAEDNGIVK [RPL4A]
2. ESLREIPYGPDFDNIEF [SEC65]

1. 2.68
2. 3.04

* * *

- test: protein stability index of a GFP-peptide fusion (yeast GPS) (PSI 1-4); higher = more stable; sorted into four equal gates, so the index is relative within each strain
- condition: ubr1∆
protein stability index of 3 or higher: Y. Under 3: N.

Field: example entries. Status: answers known.
- AEEFVAGVSHGTLGEIF [SMX3]: Y
- LMQNMMNMFGGGMGGGM [SRP54]: N
- PFHSHLLVPASDLINKD [FAS1]: N
- PQLSKAGKFPTPVSHND [RPL1A]: N
- WADNYERKEQEEKEKEQ [BRN1]: Y

Record GGGWDNVDQTKTQCPNY [RPC11] ; criterion: protein stability index no lower than 3. Met?
Y

Record KTVPFQVNQLQRILEVL [SSN3] ; criterion: protein stability index no lower than 3. Met?
N

Record FDDRGDVKVIMATNKIE [RPT2] ; criterion: protein stability index no lower than 3. Met?
Y

Record TILQHLSEAWRCWKANI [PRP8] ; criterion: protein stability index no lower than 3. Met?
Y

Record ELADLPKLKRIGLVKCT [GRR1] ; criterion: protein stability index no lower than 3. Met?
N

Record AFGGSATTGGGLFGNKP [YGL172W/NUP49] ; criterion: protein stability index no lower than 3. Met?
Y

Record SLNNSDSLISGVKQKIT [BRR2] ; criterion: protein stability index no lower than 3. Met?
N

Record TNNKKLLEKANNQQRLL [SMC3] ; criterion: protein stability index no lower than 3. Met?
N

Record GQGAFGNMCRGGRMFAP [RPL4A] ; criterion: protein stability index no lower than 3. Met?
Y

Record SMQTIAETIILSSAGKN [SRB5] ; criterion: protein stability index no lower than 3. Met?
N

Record NSPSKGNSERPSAVAGF [YIL149C/MLP2] ; criterion: protein stability index no lower than 3. Met?
Y

* * *

- test: protein stability index of a GFP-peptide fusion (yeast GPS) (PSI 1-4); higher = more stable; sorted into four equal gates, so the index is relative within each strain
- condition: ubr1∆
protein stability index of 3 or higher: Satisfied. Under 3: Not satisfied.

Field: example entries. Status: answers known.
• MQKHGYIGEFEYIDDHR [RPS22A] = Satisfied
• VTGFAEVGPWGSARTRW [FAS2] = Not satisfied
• SRILKAQSRNVEIEKRI [YGR119C/NUP57] = Not satisfied
• DFIQNVGRLWDQTFPIN [ECM29] = Satisfied
• SILEHSGIRLIEPELFN [FAS2] = Not satisfied

Record EITQQEKGLNELSIRDV [SMC4] ; criterion: protein stability index no lower than 3. Met?
Not satisfied

Record VHMYHKSLALLGYNFDG [SNF5] ; criterion: protein stability index no lower than 3. Met?
Not satisfied

Record IPSKNTPDASKPSFSFG [YLR335W/NUP2] ; criterion: protein stability index no lower than 3. Met?
Not satisfied

Record SYELRNTTTYKSRPDRP [SNF5] ; criterion: protein stability index no lower than 3. Met?
Satisfied

Record LQCISQINQGVPSAKPL [SNF11] ; criterion: protein stability index no lower than 3. Met?
Not satisfied

Record AKNRILASKIKQYERLR [RRI1] ; criterion: protein stability index no lower than 3. Met?
Not satisfied

Record TRLWGSVYYHKGNFRTK [SNU114] ; criterion: protein stability index no lower than 3. Met?
Satisfied

Record FLTGQFASNKKINDESS [YML103C/NUP188] ; criterion: protein stability index no lower than 3. Met?
Not satisfied

Record VFSHAQTAVTCESCSTI [RPS27A] ; criterion: protein stability index no lower than 3. Met?
Not satisfied

Record VRPFGVSTLIAGFDPRD [PRE6] ; criterion: protein stability index no lower than 3. Met?
Not satisfied

Record TSSKSSSLSAIIVFGYP [YDL088C/ASM4] ; criterion: protein stability index no lower than 3. Met?
Not satisfied

Record KQIVHDSGRGAPLAKVV [RPL2A] ; criterion: protein stability index no lower than 3. Met?
Not satisfied

Record FDQAGKKVSRRNARAAR [RPL13B] ; criterion: protein stability index no lower than 3. Met?
Satisfied

Record ISKQRTFAVILFLIIQC [YMR129W/POM152] ; criterion: protein stability index no lower than 3. Met?
Not satisfied

Record QTMQLIKNVQDLLILTR [SRB6] ; criterion: protein stability index no lower than 3. Met?
Not satisfied

Record DEKDYLTNQQPKNLSTP [CSE2] ; criterion: protein stability index no lower than 3. Met?
Satisfied

Record EVGDVCINELDNWNAPL [RPO31] ; criterion: protein stability index no lower than 3. Met?
Satisfied

Record KLNVVGWFHSHPGYDCW [RRI1] ; criterion: protein stability index no lower than 3. Met?
Not satisfied

Record FNPQDTEENIKGETNSE [RRP45] ; criterion: protein stability index no lower than 3. Met?
Satisfied

* * *

- test: protein stability index of a GFP-peptide fusion (yeast GPS) (PSI 1-4); higher = more stable; sorted into four equal gates, so the index is relative within each strain
- condition: pdr5∆
Please go through the items and note down their protein stability index.

Some solved entries appear below for comparison.
* LLEKYNTNELKEVSSFL [MTR3] | 2.76
* ENSIGYNNRKCWPKDSR [PRP8] | 2.95
* KINDESSIDKKSSILTV [YML103C/NUP188] | 2.68

The following sequences each have a reported value; give each one's protein stability index.
1. LAPTQLSAEYLVILKPD [SIN4]
2. SEFLNVPFESLQGVTYP [YIL149C/MLP2]
3. PSLNKTINGKVNGRTKS [GAL11]
4. KVSKNSTSFKNPRRLEI [YMR153W/NUP53]
5. VDIYSLPLISTDVLEIS [YMR129W/POM152]
6. GIQEVVHNTNSFIISSL [NUT1]

[2.74, 2.56, 3.07, 2.87, 2.58, 2.46]

The following sequences each have a reported value; give each one's protein stability index.
1. KREKRVFLKHSLSIKLA [RPN6]
2. GGGWDNVDQTKTQCPNY [RPC11]

1. 3.22
2. 3.25

The following sequences each have a reported value; give each one's protein stability index.
1. KLKGLMKLNILDERFAS [IRR1]
2. RVFNAKDTTGPKAISNF [YCS4]
3. PFLHLRKKTPAGDWKYD [FAS2]
4. ESITKAMEFIFGNSLIC [SMC2]
5. YGHVFLGITGLATDVTT [PUP3]
6. GGQHHHRINMDKYHPGY [RPL28]
7. DMPSLRLIDLSGCENIT [GRR1]

1. 2.75
2. 2.82
3. 3.32
4. 1.55
5. 2.24
6. 3.36
7. 2.7

The following sequences each have a reported value; give each one's protein stability index.
1. EKIAAGYMQKPVYATIG [PRP28]
2. SQPFIKFLNFRPPNGIK [SSN2]
3. TLKPTFSFTEPAQKDSS [YOR098C/NUP1]
4. TSSNIVLETHESGIKPY [RPT6]

[2.67, 2.31, 3.05, 2.76]

* * *

- test: protein stability index of a GFP-peptide fusion (yeast GPS) (PSI 1-4); higher = more stable; sorted into four equal gates, so the index is relative within each strain
- condition: doa10∆
Please go through the items and note down their protein stability index.
Answers are plain numbers.

Some solved entries appear below for comparison.
- NTKEIAVDLEHHDYRSY [RRP6]: 2.93
- HKDIPEEDFYTVVGNAS [DSN1]: 2.94
- QETEGTNRHTLALETVL [SIR3]: 2.72
- SNLEKLLFINSSKLVDV [YML103C/NUP188]: 2.48
- KIALMNIPKPLNSYHIK [RGR1]: 1.65

The following sequences each have a reported value; give each one's protein stability index.
1. RVNEMVQGMNDDIFIRY [ECM29]
2. DQEIVIQQLHSVLNPFL [ISW2]
3. QIELSCNERVPLSVATE [SRP72]
4. QQQQQNTNNNDTIATSA [GAL11]
5. SCQIAQPYEDRPFEGLF [RRP45]
6. YINGKATALANLRKSRG [RPO31]
7. EIFQLFTNPSVDIQIIN [SWI1]
8. LARGLRESTKALTRGEA [RPS12]

[1.7, 2.3, 2.11, 2.46, 3.33, 3, 2.69, 3.28]

The following sequences each have a reported value; give each one's protein stability index.
1. LSHYAKIRPWRTFRLNE [RPO31]
2. LPGELAKHAVSEGTRAV [HTB1]

1. 2.86
2. 3.22
